Origin of measurements: ChEMBL document CHEMBL3433997

- STUDY SYSTEM: Glucose transporter (Leishmania mexicana)
- TEST SUMMARY: ST_JUDE_LEISH: Cytotoxicity at 2uM final concentration against transgenic Leishmania Mexicana promastigotes LmGT2 that are glucose transport deficient and complemented with the L. Mexicana glucose transporter 2. Activity is measured by DNA content using SYBR green in vitro
- Assay type: functional
Provide the recorded inhibition for the entries that follow.
Give bare numbers, in %.

# count of solved cases: 3
COMPOUND	PARAMETER	NUMBER
CN(C)c1ccc2c(c1)Sc1cc(N(C)C)ccc1N2C(=O)c1cccc(C(=O)O)c1	inhibition	7.43
C1=CN(Cc2ccccc2)C=CC1=C1C=Nc2ccccc21	inhibition	8.71
Cc1nc(N)nc(N)c1-c1ccc(Br)c(Br)c1	inhibition	3.4

Would you be so kind as to report inhibition for each listed record?
1. FC(F)(F)c1ccc(CSc2ccc3nnc(-c4ccccn4)n3n2)cc1
2. CC(C)CC(=O)NC1CCN(Cc2c(-c3cccs3)nc3ccccc3c2C(=O)N[C@@H](C)C2CCCCC2)CC1
3. CCOC(=O)c1ccc(COc2ccc(C)nc2)cc1
4. O=C(Cn1c(SCc2cccc(F)c2F)cc(=O)c2ccccc21)N(Cc1ccc(-c2ccc(C(F)(F)F)cc2)cc1)C1CCN(CCO)CC1
5. CN(C)CCNC(=O)c1csc(Nc2ccc(Cl)c(Cl)c2)n1
6. O=C(N[C@@H](CC1CCCCC1)C(=O)NC1CCCCC1)c1ccc(O)c(-c2cccc(C(F)(F)F)c2)c1

1: 7.64; 2: 4.36; 3: 0.17; 4: -1.32; 5: 2.28; 6: -3.33

Would you be so kind as to report inhibition for each listed record?
1. CCCNc1ccc2nccc(CCN3CCC(NCc4ccc5c(c4)NC(=O)CS5)CC3)c2n1
2. CC(C)(C)c1ccc(NC(=O)c2cccc(CN3CCCN(Cc4cccc(C#N)c4)CC3)c2)cc1
3. N=C(Nc1ccccc1)Nc1cccc(Cc2ccc([N+](=O)[O-])cc2)n1
4. O=C(c1ccco1)c1cn(CCOc2ccccc2)c2ccccc12

1: 2.43; 2: 0.63; 3: 0.1; 4: -0.07

Would you be so kind as to report inhibition for each listed record?
1. CC(C)CCNC(=O)C1Cc2c([nH]c3cc(Br)ccc23)C2(CCN(CCc3ccccc3)CC2)N1 (centres undefined)
2. CC1CN(c2ncc(-c3ccc(CNC4Cc5ccccc5C4)cc3)cn2)CC(C)N1 (centres undefined)
3. CC(Sc1nnc(-c2cccs2)[nH]1)C(=O)c1c[nH]c2ccccc12 (centres undefined)
4. CN(C)[C@@H]1C(O)=C(C(N)=O)C(=O)[C@@]2(O)C(O)=C3C(=O)c4c(O)ccc(C#Cc5ccccn5)c4C[C@H]3C[C@@H]12

-3.76
0.64
0.63
0.74

Would you be so kind as to report inhibition for each listed record?
1. CCOc1cc(C(=O)Nc2ccc3nc(N4CCCCC4)cc(C)c3c2)cc(OCC)c1OCC
2. Cc1[nH]c(C)c(-c2ccc(-c3ccccc3Cl)nc2)c(=O)c1Br
3. CN(C)c1ccc(CN2CCC(NC(=O)c3ccc(-c4ccccc4F)s3)CC2)cc1
4. CC1(C)CN(CCC2CCC(NC(=O)/C=C/c3ccccc3F)CC2)Cc2ccc(C#N)cc21 (centres undefined)

1: 3.07; 2: -0.05; 3: -6.69; 4: 1.48

====

- STUDY SYSTEM: Hexose transporter 1 (Plasmodium falciparum) (UniProt O97467)
- TEST SUMMARY: ST_JUDE_LEISH: Cytotoxicity at 2uM final concentration against transgenic Leishmania Mexicana promastigotes LmPfHT that are glucose transport deficient and complemented with the Plasmodium falciparum hexose transporter. Activity is measured by DNA content using SYBR green in vitro
- Format: functional
PARAMETER: inhibition (%)
Give bare numbers, in %.

Would you be so kind as to report inhibition for each listed record?
1. CCCc1cc(OC)c(CC2c3cc(O)c(C)cc3CCN2C)cc1OC (stereo not given)
2. COc1ccc(CN2CCCC(Nc3ccc(F)c(F)c3)C2)c(O)c1 (stereo not given)
3. c1ccc2sc(-c3csc(Nc4ccncc4)n3)nc2c1
4. CCC(CC)(CCC#N)CN(C[C@@H](O)[C@H](Cc1ccccc1)NC(=O)OC(C)(C)C)S(=O)(=O)c1ccc(OC)cc1
5. CCCc1cc(C(=O)N[C@@H](Cc2ccccc2)[C@H](O)CNC2CCOCC2)c(F)c(N2CCCCS2(=O)=O)c1
6. Cc1cnc(NC(=O)c2cn(-c3ccccc3)nc2-c2cccs2)s1
7. COc1cc(N(C)Cc2cnc3nc(N)nc(N)c3n2)cc(OC)c1OC

1. -4.03
2. 1.39
3. 1.09
4. 0.74
5. 5.47
6. 13.2
7. 3.84

Would you be so kind as to report inhibition for each listed record?
1. COc1cccc2c(NN=Cc3cccc(Cl)c3)ccnc12
2. CC(C)COc1ccc(Cl)cc1Cc1ccc(-c2nc3ccc(F)c(F)c3[nH]2)o1

-3.77
-1.63

Would you be so kind as to report inhibition for each listed record?
1. Nc1nc(N)c2c(ccc3c2ccn3CC2CC2)n1
2. CCOc1ccc2nc3cc(NC(=O)c4ccco4)ccc3c(N)c2c1
3. FC(F)(F)c1cc(Nc2ccc(Oc3ccccc3)cc2)c2cc(-c3ccncc3)ccc2n1
4. Nc1nc(N)c2c(ccc3c2ccn3C2CCCCC2)n1
5. Cc1cc(C(=O)N(Cc2ccc(-c3ccc(CNCCc4ccc(S(C)(=O)=O)cc4)cn3)cc2)C(C)CN(C)C)ccc1[N+](=O)[O-] (stereo not given)

[6.17, 3.27, 0.41, 36.6, 5.46]

Would you be so kind as to report inhibition for each listed record?
1. COc1ccc2ncc(Cl)c(CCN3CCC(NCc4ccc5c(n4)NC(=O)CS5)CC3)c2c1
2. c1ccc(CNCc2cccc(-c3cccc(-c4nc5ccccc5[nH]4)c3)c2)cc1
3. CC(C)(CNCCOc1ccc(Cl)cc1)c1nc(-c2ccnc(N)n2)c(-c2ccc(Cl)c(O)c2)[nH]1
4. Cc1cccc2nc(-c3cccc(-c4ccc(NC(=O)c5c[nH]cn5)cc4)c3)[nH]c12
5. COc1cccc(C(=O)N2CCOC(CCN3CCC(c4ccccc4)CC3)(c3ccc(Cl)c(Cl)c3)C2)c1 (stereo not given)
6. COc1ccc2nc(C)cc(NC3Cc4ccccc4C3)c2c1

11
5.52
1.8
-0.73
-0.77
5.19
